System: NCI-H1793
test name: relative viability (nuclei count vs DMSO), 5 days (fraction); higher = more cells survive
particulars: first compound 0.02 µM
outcome measure: relative viability
Output spec: single numeric token, no unit.

# compound CN1CCN(CCOc2cc(OC3CCOCC3)c3c(Nc4c(Cl)ccc5c4OCO5)ncnc3c2)CC1 [Saracatinib] + CC(=O)Nc1cccc(-n2c(=O)n(C3CC3)c(=O)c3c(Nc4ccc(I)cc4F)n(C)c(=O)c(C)c32)c1 [Trametinib] (partner 0.02 µM) ; its relative viability = 0.439

# compound CCNC(=O)c1noc(-c2cc(C(C)C)c(O)cc2O)c1-c1ccc(CN2CCOCC2)cc1 [Luminespib] + CS(=O)(=O)N1CCN(Cc2cc3nc(-c4cccc5[nH]ncc45)nc(N4CCOCC4)c3s2)CC1 [Pictilisib] (partner 1 µM) ; its relative viability = 0.12

# compound CCNC(=O)c1noc(-c2cc(C(C)C)c(O)cc2O)c1-c1ccc(CN2CCOCC2)cc1 [Luminespib] + Nc1ncn([C@H]2C[C@H](O)[C@@H](CO)O2)c(=O)n1 [Decitabine] (partner 2 µM) ; its relative viability = 0.369

# compound CN1CCN(CCOc2cc(OC3CCOCC3)c3c(Nc4c(Cl)ccc5c4OCO5)ncnc3c2)CC1 [Saracatinib] + CCNC(=O)c1noc(-c2cc(C(C)C)c(O)cc2O)c1-c1ccc(CN2CCOCC2)cc1 [Luminespib] (partner 0.01 µM) ; its relative viability = 0.2

# compound CN1CCN(CCOc2cc(OC3CCOCC3)c3c(Nc4c(Cl)ccc5c4OCO5)ncnc3c2)CC1 [Saracatinib] + Cc1nc(Nc2ncc(C(=O)Nc3c(C)cccc3Cl)s2)cc(N2CCN(CCO)CC2)n1 [Dasatinib] (partner 0.075 µM) ; its relative viability = 0.439

# compound CCNC(=O)c1noc(-c2cc(C(C)C)c(O)cc2O)c1-c1ccc(CN2CCOCC2)cc1 [Luminespib] + CC(=O)c1c(C)c2cnc(Nc3ccc(N4CCNCC4)cn3)nc2n(C2CCCC2)c1=O [Palbociclib] (partner 0.5 µM) ; its relative viability = 0.211

# compound CN1CCN(CCOc2cc(OC3CCOCC3)c3c(Nc4c(Cl)ccc5c4OCO5)ncnc3c2)CC1 [Saracatinib] + CS(=O)(=O)CCNCc1ccc(-c2ccc3ncnc(Nc4ccc(OCc5cccc(F)c5)c(Cl)c4)c3c2)o1 [Lapatinib] (partner 2 µM) ; its relative viability = 0.894

# compound CCNC(=O)c1noc(-c2cc(C(C)C)c(O)cc2O)c1-c1ccc(CN2CCOCC2)cc1 [Luminespib] + COc1cc2c(Oc3ccc(NC(=O)C4(C(=O)Nc5ccc(F)cc5)CC4)cc3F)ccnc2cc1OCCCN1CCOCC1 [Foretinib] (partner 0.25 µM) ; its relative viability = 0.472

# compound CCNC(=O)c1noc(-c2cc(C(C)C)c(O)cc2O)c1-c1ccc(CN2CCOCC2)cc1 [Luminespib] + Cc1nc(NC(=O)N2CCC[C@H]2C(N)=O)sc1-c1ccnc(C(C)(C)C(F)(F)F)c1 [Alpelisib] (partner 2 µM) ; its relative viability = 0.319

# compound CN1CCN(CCOc2cc(OC3CCOCC3)c3c(Nc4c(Cl)ccc5c4OCO5)ncnc3c2)CC1 [Saracatinib] + COc1cc2c(Oc3ccc(NC(=O)C4(C(=O)Nc5ccc(F)cc5)CC4)cc3F)ccnc2cc1OCCCN1CCOCC1 [Foretinib] (partner 0.25 µM) ; its relative viability = 0.685
